# ASSAY_PROTOCOL: Visually estimated solubility of Form 1 in an array of solvents
# Format: physicochemical
# PROTOCOL_CONDITIONS: organic solvent or mixture, thermodynamic from solid; Toluene; 20° C.; read-out: Solubility at RT
PROPERTY_LABEL: solubility

Entry [2H]C1([2H])C(=O)NC(=O)[C@@]([2H])(N2Cc3c(N)cccc3C2=O)C1([2H])[2H] (single isomer, unassigned) [Form 1] has what solubility?
< 1000 µg/mL

----------
# ASSAY_PROTOCOL: Visually estimated solubility of Form 1 in an array of solvents
# Assay type: physicochemical
# PROTOCOL_CONDITIONS: organic solvent or mixture, thermodynamic from solid; 2-Propanol; 20° C.; read-out: Solubility at RT
PROPERTY_LABEL: solubility

Entry [2H]C1([2H])C(=O)NC(=O)[C@@]([2H])(N2Cc3c(N)cccc3C2=O)C1([2H])[2H] (single isomer, unassigned) [Form 1] has what solubility?
< 1000 µg/mL
